target: hHGF-Fc G555E (recombinant hHGF protein containing a glycine to glutamate substitution at position 555) (human); assay: SPR, antibody immobilized, HGF protein injected, 25 C
Sequence (chain, as listed by the source G555E G555E limits assumed): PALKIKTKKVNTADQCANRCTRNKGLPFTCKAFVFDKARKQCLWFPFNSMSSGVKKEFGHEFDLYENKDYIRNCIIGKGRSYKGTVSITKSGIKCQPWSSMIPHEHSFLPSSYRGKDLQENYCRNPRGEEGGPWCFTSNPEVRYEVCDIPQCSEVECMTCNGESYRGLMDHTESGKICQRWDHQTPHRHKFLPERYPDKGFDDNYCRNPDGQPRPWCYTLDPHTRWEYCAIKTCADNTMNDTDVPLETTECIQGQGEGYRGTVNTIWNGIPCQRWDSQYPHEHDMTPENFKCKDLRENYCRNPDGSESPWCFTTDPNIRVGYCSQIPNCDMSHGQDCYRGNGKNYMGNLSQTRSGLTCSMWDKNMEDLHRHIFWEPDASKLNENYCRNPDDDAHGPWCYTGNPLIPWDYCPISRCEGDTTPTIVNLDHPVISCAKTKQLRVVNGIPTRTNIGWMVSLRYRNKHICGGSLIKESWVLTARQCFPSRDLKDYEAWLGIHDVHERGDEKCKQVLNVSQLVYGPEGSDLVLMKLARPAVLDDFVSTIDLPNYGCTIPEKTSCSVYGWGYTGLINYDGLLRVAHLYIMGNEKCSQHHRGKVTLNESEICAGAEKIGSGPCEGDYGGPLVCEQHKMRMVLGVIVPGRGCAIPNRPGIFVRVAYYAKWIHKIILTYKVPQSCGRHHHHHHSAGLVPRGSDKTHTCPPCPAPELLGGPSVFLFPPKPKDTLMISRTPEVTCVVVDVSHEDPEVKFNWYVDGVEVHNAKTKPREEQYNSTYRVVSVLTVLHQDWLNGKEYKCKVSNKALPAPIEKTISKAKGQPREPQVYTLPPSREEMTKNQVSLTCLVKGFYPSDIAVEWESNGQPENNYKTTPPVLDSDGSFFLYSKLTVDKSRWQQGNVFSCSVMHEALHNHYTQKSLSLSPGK

BINDER	binding result
anti-hHGF monoclonal antibody 1F3 (antibody, mouse IgG1, kappa, V domains shown, Murine IgG1 kappa from hybridoma) VH: EVQLVESGGGLVQSGGSLKLSCAASGFTFSNYFMSWVRQTPEKRLEWVAYISSGGGSTYYPDSVKGRFTISRDNAKNTLYLQMSSLKSEDTAMYYCVRQGDGYYGDYAMDYWGQGTSVTVSS VL: DIQMTQSPASLSVSVGETVTITCRASENIYSNLAWYQQKQGKSPQLLVYDATHLPDGVPSRFSGSGSGTQFSLKINSLQSEDFGSYYCQHFWGTPYTFGGGTRLEIKR	binds
anti-hHGF monoclonal antibody 2F8 (antibody, mouse IgG1, kappa, V domains shown, Murine IgG1 kappa from hybridoma) VH: QVQLKQSGAELVRPGTSVKMSCKASGYTFTTYYIHWVNQRPGQGLEWIGKIGPGSGSTYYNEMFKDKATLTVDTSSSTAYMQLSSLTSDDSAVYFCARRGLGRGFDYWGQGTTLTVSS VL: DIVLTQSPASLAVSLGQRATISCKASQSVDYDGNSYINWYQQKPGQPPKVLIYVASNLESGIPARFSGSGSGTDFTLNIHPVEEEDAATYYCQQSIEDPPTFGAGTKLELKR	binds
anti-hHGF monoclonal antibody 3D11 (antibody, mouse IgG1, kappa, V domains shown, Murine IgG1 kappa from hybridoma) VH: QVQLKESGPGLVAPSQSLSITCTVSGFSLTSYSLHWVRQPPGKGLEWLGVIWAGGNTNYNSSLMSRLTIRKDNSKSQVFLKMNSLQTDDTAMYYCARERFAYWGQGTLVTVSA VL: QIVLTQSPAIMSAYPGEKVTMTCSASSSVSYMHWYQQKSGTSPKRWIYDTSKLASGVPARFSGSGSGTSYSLTISSMEAEDAATYYCQQWSSNPLTFGAGTKLELKR	binds
